- assay-system: recombinant human NF-kappaB-inducing kinase (NIK/MAP3K14) (Homo sapiens (Human), UniProt Q99558)
- Sequence (Q99558 whole entry): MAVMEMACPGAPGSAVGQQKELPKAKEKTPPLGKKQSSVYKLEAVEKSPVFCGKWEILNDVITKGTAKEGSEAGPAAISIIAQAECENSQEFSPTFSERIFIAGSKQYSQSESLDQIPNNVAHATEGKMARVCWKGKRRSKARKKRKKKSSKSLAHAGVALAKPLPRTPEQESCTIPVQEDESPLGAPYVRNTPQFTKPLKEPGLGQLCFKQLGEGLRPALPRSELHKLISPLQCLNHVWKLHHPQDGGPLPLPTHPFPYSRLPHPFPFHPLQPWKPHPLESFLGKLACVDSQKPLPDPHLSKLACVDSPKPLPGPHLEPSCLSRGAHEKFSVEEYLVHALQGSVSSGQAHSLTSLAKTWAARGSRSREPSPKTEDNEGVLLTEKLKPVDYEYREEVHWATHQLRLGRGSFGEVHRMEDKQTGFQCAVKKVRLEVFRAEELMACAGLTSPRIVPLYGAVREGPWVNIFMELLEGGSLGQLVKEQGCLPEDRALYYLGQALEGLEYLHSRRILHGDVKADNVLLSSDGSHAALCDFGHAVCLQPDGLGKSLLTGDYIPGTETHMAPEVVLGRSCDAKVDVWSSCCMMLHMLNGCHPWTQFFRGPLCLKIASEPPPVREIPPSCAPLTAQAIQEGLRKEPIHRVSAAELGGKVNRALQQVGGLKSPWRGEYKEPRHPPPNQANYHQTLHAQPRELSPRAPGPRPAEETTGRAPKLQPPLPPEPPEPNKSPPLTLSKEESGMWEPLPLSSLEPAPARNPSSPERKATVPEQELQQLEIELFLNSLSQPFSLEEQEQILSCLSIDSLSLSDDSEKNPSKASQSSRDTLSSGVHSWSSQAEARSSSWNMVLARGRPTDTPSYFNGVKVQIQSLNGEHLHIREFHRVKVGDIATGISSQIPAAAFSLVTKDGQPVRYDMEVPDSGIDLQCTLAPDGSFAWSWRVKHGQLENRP
- test-details: Inhibition of auto-phosphorylation of recombinant human NIK/MAP3K14 activity (AlphaScreen)
- Assay type: biochemical
- cond: averaged values over all measurements on all batches
Binary call on IC50 with cut-off 4 nM: strictly below means Met, and equality or higher means Not met.

Some solved entries appear below for comparison.
| compound | discrete-label |
| --- | --- |
| CN1CCC(n2cc(Nc3nccc(-c4cc(C#N)c5c(c4)C(C)(CO)CN5)n3)cn2)CC1 (centres unmarked) | Met |
| Cc1c(Nc2nccc(-c3cc(C#N)c4c(c3)[C@@](C)(CO)CN4)n2)cnn1C1CCOCC1 | Met |
| Cn1cc(Cl)c(Nc2nccc(-c3cc(C#N)c4c(c3)C(C)(CO)CN4)n2)n1 (centres unmarked) | Not met |
| Cc1c(Nc2nccc(-c3cc(C#N)c4c(c3)[C@@](C)(CO)CN4)n2)cnn1C1CCN(C)CC1 | Met |
| CN(CCO)C[C@@]1(C)CNc2c(C#N)cc(-c3ccnc(Nc4ccn(C)n4)n3)cc21 | Not met |

Please let me know if Cc1cc(Nc2nccc(-c3cc(C#N)c4c(c3)[C@@](C)(CO)CN4)n2)n(CC2CCCN(C)C2)n1 (single isomer, unassigned) [Compound 140] shows IC50 below 4 nM. Not met

Please let me know if "Cc1cc(Nc2nccc(-c3cc(C#N)c4c(c3)[C@@](C)(CO)CN4)n2)n(CC2(F)CCN(C)CC2)n1" shows IC50 below 4 nM. Not met

Please let me know if Cn1nccc1Nc1nccc(-c2cc(C#N)c3c(c2)C(C)(CO)CN3)n1 (centres unmarked) shows IC50 below 4 nM. Not met

====

- assay-system: recombinant human NF-kappaB-inducing kinase (NIK/MAP3K14) (Homo sapiens (Human), UniProt Q99558)
- test-details: Inhibition of auto-phosphorylation of recombinant human NIK/MAP3K14 activity (AlphaScreen)
- Assay type: biochemical
- cond: averaged values over all measurements on all batches
IC50 values for the compounds below.

| compound | IC50 |
| --- | --- |
| CN1CCC(F)(Cn2nc(Cl)cc2Nc2nccc(-c3cc(C#N)c4c(c3)[C@@](C)(CO)CN4)n2)CC1 [Compound 160] | 3.6 nM |
| Cc1cc(Nc2nccc(-c3cc(C#N)c4c(c3)[C@@](C)(CO)CN4)n2)nn1CCC(C)(C)O [Compound 109] | 3.6 nM |
| CC(C)CCc1c(Nc2nccc(-c3cc(C#N)c4c(c3)[C@@](C)(CO)CN4)n2)cnn1Cc1cncn1C [Compound 120] | ~29 nM |
| CNC(=O)c1cc(Nc2nccc(-c3cc(C#N)c4c(c3)[C@@](C)(CO)CN4)n2)n(CC(C)C)n1 [Compound 219] | 9.5 nM |
| Cn1ccc(Nc2nccc(-c3cc(C#N)c4c(c3)[C@@](C)(CN)CN4)n2)n1 [Compound 222] | 12 nM |
| Cc1cc(Nc2nccc(-c3cc(C#N)c4c(c3)[C@@](C)(CO)CN4)n2)n(C2CCS(=O)(=O)C2)n1 (mixture of isomers) [Compound 33] | 9.1 nM |
| Cc1cc(Nc2nccc(-c3cc(C#N)c4c(c3)[C@@](C)(CO)CN4)n2)n(CC2CCN(C)CC2)n1 [Compound 83] | 10 nM |
| Cc1c(Nc2nccc(-c3cc(C#N)c4c(c3)[C@@](C)(CO)CN4)n2)cnn1CC1CCOCC1 [Compound 76] | 1.2 nM |

The reported value for CNC(=O)c1cc(Nc2nccc(-c3cc(C#N)c4c(c3)[C@@](C)(CO)CN4)n2)n(C2CCCC2)n1 [Compound 196] in terms of IC50 is 8.3 nM

The reported value for COC(C)(C)CCn1nc(C)cc1Nc1nccc(-c2cc(C#N)c3c(c2)[C@@](C)(CO)CN3)n1 [Compound 59] in terms of IC50 is 5 nM

The reported value for C[C@]1(CO)CNc2c(C#N)cc(-c3cc(Nc4cn(CC(F)F)nc4C4CCOCC4)ncn3)cc21 [Compound 220] in terms of IC50 is 5.6 nM

The reported value for CC(C)Cn1nc(P(C)(C)=O)cc1Nc1nccc(-c2cc(C#N)c3c(c2)[C@@](C)(CO)CN3)n1 [Compound 119] in terms of IC50 is 9.6 nM
